biological target: Na^+/H^+-Exchangers von Kaninchenerythrocyten (Oryctolagus cuniculus); construct: den Na^+-Influx in die Erythrocyten via Na^+/H^+-Austausch flammenphotometrisch bestimmen zu können; test: Inhibition of the Na+/H+ exchanger of rabbit erythrocytes (amiloride-sensitive sodium influx, flame photometry); details: Inhibition des Na^+/H^+-Exchangers, hyperosmolares Salz-Sucrose-Medium, pH 7,4, 37°C
Sequence (P23791 whole entry): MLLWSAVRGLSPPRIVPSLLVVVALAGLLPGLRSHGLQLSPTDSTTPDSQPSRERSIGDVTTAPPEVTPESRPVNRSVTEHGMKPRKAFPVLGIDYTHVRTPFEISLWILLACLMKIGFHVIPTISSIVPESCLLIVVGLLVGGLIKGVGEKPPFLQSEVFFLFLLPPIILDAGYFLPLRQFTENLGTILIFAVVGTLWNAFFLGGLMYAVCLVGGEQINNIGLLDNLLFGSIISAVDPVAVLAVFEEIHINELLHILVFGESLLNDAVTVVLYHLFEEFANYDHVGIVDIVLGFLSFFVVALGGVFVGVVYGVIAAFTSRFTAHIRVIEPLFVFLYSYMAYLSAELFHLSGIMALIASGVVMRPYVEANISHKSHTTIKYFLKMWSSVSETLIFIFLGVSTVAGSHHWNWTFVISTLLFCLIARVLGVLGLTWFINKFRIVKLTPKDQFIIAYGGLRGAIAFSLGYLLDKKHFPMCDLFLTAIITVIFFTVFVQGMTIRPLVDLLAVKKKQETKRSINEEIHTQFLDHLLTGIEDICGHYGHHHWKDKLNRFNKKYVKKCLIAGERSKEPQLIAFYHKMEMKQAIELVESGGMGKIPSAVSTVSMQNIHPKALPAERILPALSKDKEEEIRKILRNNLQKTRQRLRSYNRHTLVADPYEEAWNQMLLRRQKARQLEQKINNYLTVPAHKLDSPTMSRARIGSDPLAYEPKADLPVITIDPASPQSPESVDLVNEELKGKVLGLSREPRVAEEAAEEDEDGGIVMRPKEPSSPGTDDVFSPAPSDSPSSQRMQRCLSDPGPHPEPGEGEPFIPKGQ
readout name: pIC50
API: returns pIC50 as number; meaning -log10 of concentration in mol/L.

Enter reported pIC50 observed with Na^+/H^+-Exchangers von Kaninchenerythrocyten (Oryctolagus cuniculus) for NC(N)=NC(=O)c1cc(C(=O)N=C(N)N)c(Cl)c(-c2ccccc2)c1 [Beispiel 1]
3.05
